target: T1, recombinant human IL-6 (human, UniProt P05231 30-212); test: SPR (Biacore), purified IgG on Protein A, 37 C
T1 construct: Flowed in solution over the captured antibodies
T1 sequence (P05231 30-212 limits assumed): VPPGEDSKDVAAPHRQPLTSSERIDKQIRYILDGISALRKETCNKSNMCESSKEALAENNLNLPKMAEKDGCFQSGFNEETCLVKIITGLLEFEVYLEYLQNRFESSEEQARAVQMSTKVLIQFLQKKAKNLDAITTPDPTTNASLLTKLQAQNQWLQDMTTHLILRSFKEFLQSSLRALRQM
Measurement name: koff

Some solved entries appear below for comparison.
anti-IL-6 antibody, heavy chain WT, light chain A25T (antibody, IgG1, V domains shown, Full IgG1 tested; V domains derived as in m2) VH: EVQLVESGGGLVQPGGSLRLSCAASGFTFSPFAMSWVRQAPGKGLEWVAKISPGGSWTYYSDTVTGRFTFSLDTSKSTAYLQMNSLRAEDTAVYYCARQLWGYYALDIWGQGTLVTVSS VL: DIQLTQSPSSLSASVGDRVTITCSTSISVSYMYWYQQKPGKAPKLLIYDMSNLASGVPSRFSGSGSGTDFTLTISSLQPEDFATYYCMQWSGYPYTFGQGTKVEIK	0.000378 s⁻¹
anti-IL-6 antibody, heavy chain G26R, light chain WT (antibody, IgG1, V domains shown, Full IgG1 tested; V domains derived as in m2) VH: EVQLVESGGGLVQPGGSLRLSCAASRFTFSPFAMSWVRQAPGKGLEWVAKISPGGSWTYYSDTVTGRFTFSLDTSKSTAYLQMNSLRAEDTAVYYCARQLWGYYALDIWGQGTLVTVSS VL: DIQLTQSPSSLSASVGDRVTITCSASISVSYMYWYQQKPGKAPKLLIYDMSNLASGVPSRFSGSGSGTDFTLTISSLQPEDFATYYCMQWSGYPYTFGQGTKVEIK	0.000326 s⁻¹
anti-IL-6 antibody, heavy chain F29Y, light chain WT (antibody, IgG1, V domains shown, Full IgG1 tested; V domains derived as in m2) VH: EVQLVESGGGLVQPGGSLRLSCAASGFTYSPFAMSWVRQAPGKGLEWVAKISPGGSWTYYSDTVTGRFTFSLDTSKSTAYLQMNSLRAEDTAVYYCARQLWGYYALDIWGQGTLVTVSS VL: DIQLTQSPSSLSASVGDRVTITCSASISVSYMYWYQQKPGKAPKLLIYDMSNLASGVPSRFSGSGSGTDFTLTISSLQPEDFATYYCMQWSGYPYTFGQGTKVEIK	0.000374 s⁻¹
anti-IL-6 antibody, heavy chain L106F, light chain WT (antibody, IgG1, V domains shown, Full IgG1 tested; V domains derived as in m2) VH: EVQLVESGGGLVQPGGSLRLSCAASGFTFSPFAMSWVRQAPGKGLEWVAKISPGGSWTYYSDTVTGRFTFSLDTSKSTAYLQMNSLRAEDTAVYYCARQLWGYYAFDIWGQGTLVTVSS VL: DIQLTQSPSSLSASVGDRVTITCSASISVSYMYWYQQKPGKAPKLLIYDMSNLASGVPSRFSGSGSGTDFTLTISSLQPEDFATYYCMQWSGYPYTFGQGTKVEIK	0.000541 s⁻¹

Switching to the query record.
Q: Item under review: anti-IL-6 antibody, heavy chain WT, light chain A25S (antibody, IgG1, V domains shown, Full IgG1 tested; V domains derived as in m2) VH: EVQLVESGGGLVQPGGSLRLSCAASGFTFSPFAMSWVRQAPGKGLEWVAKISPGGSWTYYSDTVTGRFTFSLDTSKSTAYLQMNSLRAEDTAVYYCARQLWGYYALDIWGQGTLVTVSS VL: DIQLTQSPSSLSASVGDRVTITCSSSISVSYMYWYQQKPGKAPKLLIYDMSNLASGVPSRFSGSGSGTDFTLTISSLQPEDFATYYCMQWSGYPYTFGQGTKVEIK . Reported koff?
Ans: 0.000342 s⁻¹
